Please respond with reported pIC50 for every item in the list.
Sequence of the target: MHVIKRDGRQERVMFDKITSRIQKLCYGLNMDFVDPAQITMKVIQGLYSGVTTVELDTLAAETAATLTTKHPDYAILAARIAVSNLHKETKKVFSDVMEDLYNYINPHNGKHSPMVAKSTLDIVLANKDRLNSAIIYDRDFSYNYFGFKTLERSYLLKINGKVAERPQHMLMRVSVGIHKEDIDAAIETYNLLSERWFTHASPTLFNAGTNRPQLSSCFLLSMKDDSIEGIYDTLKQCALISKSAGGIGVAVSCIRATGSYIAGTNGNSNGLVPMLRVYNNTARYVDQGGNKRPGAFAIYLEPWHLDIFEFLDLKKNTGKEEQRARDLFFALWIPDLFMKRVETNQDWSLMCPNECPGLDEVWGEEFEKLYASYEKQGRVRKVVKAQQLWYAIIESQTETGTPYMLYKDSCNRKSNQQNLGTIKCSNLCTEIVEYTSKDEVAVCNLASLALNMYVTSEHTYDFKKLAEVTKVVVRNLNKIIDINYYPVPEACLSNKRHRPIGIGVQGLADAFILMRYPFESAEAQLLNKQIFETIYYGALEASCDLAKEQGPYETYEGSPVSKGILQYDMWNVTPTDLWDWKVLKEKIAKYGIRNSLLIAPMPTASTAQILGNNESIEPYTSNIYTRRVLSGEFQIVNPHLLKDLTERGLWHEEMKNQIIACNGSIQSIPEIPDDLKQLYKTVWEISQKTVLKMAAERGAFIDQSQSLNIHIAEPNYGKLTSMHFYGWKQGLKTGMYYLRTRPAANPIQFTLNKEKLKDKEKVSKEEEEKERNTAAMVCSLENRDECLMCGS
Give bare numbers, as −log10 of the molar value.

Below, each entry is followed by its recorded pIC50 result.
- Compound: "Cc1c(Cl)ccc(F)c1[C@@H](C)[C@H](NS(=O)(=O)c1ccc(F)c2c1OCCC2(C)O)c1n[nH]c(=O)o1 (single isomer, unassigned) [Example 229B]"
  pIC50: 6.96
- Compound: "Cc1ccc(F)c([C@@H](C)[C@H](NS(=O)(=O)c2cccc3c2OCCO3)c2n[nH]c(=O)o2)c1C [Example 164]"
  pIC50: 6.48
- Compound: "COc1cc(Cl)ccc1S(=O)(=O)N[C@H](c1n[nH]c(=O)o1)[C@H](C)c1c(F)ccc(C)c1C [Example 83]"
  pIC50: 6.85
- Compound: "Cc1ccc(F)c([C@@H](C)[C@H](NS(=O)(=O)c2ccc3c(c2)CC(=O)N3)c2n[nH]c(=O)o2)c1C [Example 162]"
  pIC50: 6.13
- Compound: "Cc1ccc(F)c([C@@H](C)[C@H](NS(=O)(=O)c2cc3c(cc2C(N)=O)OCCO3)c2n[nH]c(=O)o2)c1C [Example 261]"
  pIC50: 7.05

Give me pIC50 for each of these compounds, listed below.
1. Cc1ccc(F)c([C@@H](C)[C@H](NS(=O)(=O)c2ccc(Cl)c(C(=O)N3CCC4(CC3)COC4)n2)c2n[nH]c(=O)o2)c1C [Example 156]
2. Cc1ccc(F)c([C@@H](C)[C@H](NS(=O)(=O)c2cc(C(C)(C)O)c(F)cc2C(N)=O)c2n[nH]c(=O)o2)c1C [Example 196]
3. Cc1c(C(F)(F)F)ccc(F)c1[C@@H](C)[C@H](NS(=O)(=O)c1ccc(Cl)cc1C(N)=O)c1n[nH]c(=O)o1 [Example 27]
4. CC(O)c1cc(S(=O)(=O)N[C@H](c2n[nH]c(=O)o2)[C@H](C)c2cccc3c2CCC3)ccc1Cl (stereo partly shown) [Example 231]
5. COC(=O)c1cc(Cl)cnc1S(=O)(=O)N[C@H](c1n[nH]c(=O)o1)[C@H](C)c1c(F)ccc(C)c1C [Example 118]
6. CC(=O)OC(C)c1nc(S(=O)(=O)N[C@H](c2n[nH]c(=O)o2)[C@H](C)c2cccc3c2CCC3)ccc1Cl (stereo partly shown) [Example 142]
7. [2H]C([2H])([2H])C1(O)CCOc2c(S(=O)(=O)N[C@H](c3n[nH]c(=O)o3)[C@H](C)c3c(F)ccc(Cl)c3C)ccc(Cl)c21 (single isomer, unassigned) [Example 228A]

1. 7.10
2. 7.10
3. 6.26
4. 6.19
5. 6.47
6. 6.68
7. 7.10

Given the compound Cc1ccc(F)c([C@H](C)[C@H](NS(=O)(=O)c2ccc(Cl)cc2C(N)=O)c2n[nH]c(=O)o2)c1C [Example 32] , what is its reported pIC50?
6.10

Data provenance is patent US20200405697A1.
